Assay: Pharmacokinetics in rats after intravenous administration
Format: in vivo
Details: Sprague-Dawley, rat, plasma, i.v. 1 mg/kg
Reported metric: C0

Query: I would be grateful if you could share the reported C0 for CN1CCN(c2ccc(OC(F)(F)F)c(Nc3nccc(-c4cc5c(=O)[nH]ccc5n4C)n3)c2)CC1 [compound 7a] .
Result: 481 nM

---

Assay: Pharmacokinetic study in rats after oral administration
Type: in vivo, Sprague-Dawley rats
Details: both sexes, Sprague-Dawley, rat, plasma; oral 30 mg/kg, mean of male and female rats; read-out: F
Reported metric: bioavailability (%)
Answers are plain numbers, in %.

Query: I would be grateful if you could share the reported bioavailability for CN1CCN(c2ccc(OC(F)(F)F)c(Nc3nccc(-c4cc5c(=O)[nH]ccc5n4C)n3)c2)CC1 [compound 7a] .
Result: 22.5

---

Assay: Pharmacokinetic study in rats after oral administration
Format: in vivo, Sprague-Dawley rats
Conditions: Sprague-Dawley, rat, plasma; oral 30 mg/kg, female rats; read-out: F
Reported metric: bioavailability (%)
Numbers only, in %.

Query: I would be grateful if you could share the reported bioavailability for CN1CCN(c2ccc(OC(F)(F)F)c(Nc3nccc(-c4cc5c(=O)[nH]ccc5n4C)n3)c2)CC1 [compound 7a] .
Result: 22.3

---

Test: Pharmacokinetic study in rats after oral administration
Type: in vivo, Sprague-Dawley rats
Conditions: Sprague-Dawley, rat, plasma; oral 30 mg/kg, female rats
Reported metric: Cmax (nM)
Give bare numbers, in nM.

Query: I would be grateful if you could share the reported Cmax for `CN1CCN(c2ccc(OC(F)(F)F)c(Nc3nccc(-c4cc5c(=O)[nH]ccc5n4C)n3)c2)CC1` .
Result: 428

---

Assay: Pharmacokinetic study in rats after oral administration
Format: in vivo, Sprague-Dawley rats
Conditions: both sexes, Sprague-Dawley, rat, plasma; oral 5 mg/kg, mean of male and female rats; read-out: F
Reported metric: bioavailability
The reply should read as a number followed by its unit.

Query: I would be grateful if you could share the reported bioavailability for `CN1CCN(c2ccc(OC(F)(F)F)c(Nc3nccc(-c4cc5c(=O)[nH]ccc5n4C)n3)c2)CC1` .
Result: 21.9%

---

Assay: Pharmacokinetic study in rats after oral administration
Format: in vivo, Sprague-Dawley rats
Settings: Sprague-Dawley, rat, plasma; oral 5 mg/kg, male rats; read-out: F
Reported metric: bioavailability (%)
Give bare numbers, in %.

Query: I would be grateful if you could share the reported bioavailability for CN1CCN(c2ccc(OC(F)(F)F)c(Nc3nccc(-c4cc5c(=O)[nH]ccc5n4C)n3)c2)CC1 [compound 7a] .
Result: 23.9

---

Experiment: Pharmacokinetic study in rats after oral administration
Type: in vivo, Sprague-Dawley rats
Conditions: both sexes, Sprague-Dawley, rat, plasma; oral 5 mg/kg, mean of male and female rats
Reported metric: Tmax (h)
Give bare numbers, in h.

Query: I would be grateful if you could share the reported Tmax for `CN1CCN(c2ccc(OC(F)(F)F)c(Nc3nccc(-c4cc5c(=O)[nH]ccc5n4C)n3)c2)CC1` .
Result: 1.9

---

Assay: Pharmacokinetic study in rats after oral administration
Assay type: in vivo, Sprague-Dawley rats
Conditions: Sprague-Dawley, rat, plasma; oral 30 mg/kg, male rats; read-out: F
Reported metric: bioavailability
The reply should read as a number followed by its unit.

Query: I would be grateful if you could share the reported bioavailability for `CN1CCN(c2ccc(OC(F)(F)F)c(Nc3nccc(-c4cc5c(=O)[nH]ccc5n4C)n3)c2)CC1` .
Result: 22.7%
